All values here come from paper PMC11328874.

Below, each entry is listed alongside its reported ratio to parent.
B1: HA-tagged B55α (HA-B55α), wild type [human] / FLAG-Eya3 (human), wild type [human] (parent complex)
chain 1: MAGAGGGNDIQWCFSQVKGAVDDDVAEADIISTVEFNHSGELLATGDKGGRVVIFQQEQENKIQSHSRGEYNVYSTFQSHEPEFDYLKSLEIEEKINKIRWLPQKNAAQFLLSTNDKTIKLWKISERDKRPEGYNLKEEDGRYRDPTTVTTLRVPVFRPMDLMVEASPRRIFANAHTYHINSISINSDYETYLSADDLRINLWHLEITDRSFNIVDIKPANMEELTEVITAAEFHPNSCNTFVYSSSKGTIRLCDMRASALCDRHSKLFEEPEDPSNRSFFSEIISSISDVKFSHSGRYMMTRDYLSVKIWDLNMENRPVETYQVHEYLRSKLCSLYENDCIFDKFECCWNGSDSVVMTGSYNNFFRMFDRNTKRDITLEASRENNKPRTVLKPRKVCASGKRKKDEISVDSLDFNKKILHTAWHPKENIIAVATTNNLYIFQDKVN
chain 2: MEEEQDLPEQPVKKAKMQESGEQTISQVSNPDVSDQKPETSSLASNLPMSEEIMTCTDYIPRSSNDYTSQMYSAKPYAHILSVPVSETAYPGQTQYQTLQQTQPYAVYPQATQTYGLPPFGALWPGMKPESGLIQTPSPSQHSVLTCTTGLTTSQPSPAHYSYPIQASSTNASLISTSSTIANIPAAAVASISNQDYPTYTILGQNQYQACYPSSSFGVTGQTNSDAESTTLAATTYQSEKPSVMAPAPAAQRLSSGDPSTSPSLSQTTPSKDTDDQSRKNMTSKNRGKRKADATSSQDSELERVFLWDLDETIIIFHSLLTGSYAQKYGKDPTVVIGSGLTMEEMIFEVADTHLFFNDLEECDQVHVEDVASDDNGQDLSNYSFSTDGFSGSGGSGSHGSSVGVQGGVDWMRKLAFRYRKVREIYDKHKSNVGGLLSPQRKEALQRLRAEIEVLTDSWLGTALKSLLLIQSRKNCVNVLITTTQLVPALAKVLLYGLGEIFPIENIYSATKIGKESCFERIVSRFGKKVTYVVIGDGRDEEIAAKQHNMPFWRITNHGDLVSLHQALELDFL

# Variants of: B1
# procedure details: FLAG co-IP followed by Western blot, band quantification; cotransfected HEK cells; three biological replicates; parent: 1; read off a plot

change	ratio to parent
chain 1 Y178A, chain 1 H179A	~0.28

Memo: chain 1 K48E , reported ratio to parent: ~1.1

Memo: chain 1 D197K , reported ratio to parent: ~0.58
